System: PC-3 prostrate cell adenocarcinoma
Test: Relative colony forming efficiency (Example 17, Table 13)
Type: cell-based, human
Conditions: averages of 2-8 determinations
Oligonucleotides are written 5' to 3', each unit as a sugar letter and its base; * is a phosphorothioate linkage, no mark a phosphodiester; rarer units and linkages stand in square brackets, end groups in braces. Plain capitals give the bases only. d = 2'-deoxy (DNA)
Threshold check on Reduced relative colony forming efficiency, PC-3 (% inhibition of colony forming ability): at or above 80% gives MET, strictly below gives NOT MET.

| Substance | Tested On | Discrete Label |
| --- | --- | --- |
| GCGAGCGGGACACGGAGGGA (antisense dG*dC*dG*dA*dG*dC*dG*dG*dG*dA*dC*dA*dC*dG*dG*dA*dG*dG*dG*dA) [AS-II-201-20] | PC-3 prostrate cell adenocarcinoma | NOT MET |
| TTCATGGTGTGGCTAGTTGG (antisense dT*dT*dC*dA*dT*dG*dG*dT*dG*dT*dG*dG*dC*dT*dA*dG*dT*dT*dG*dG) [AS-II-1438-20] | PC-3 prostrate cell adenocarcinoma | MET |
| C*CCC*TCAC*TCC*AGC*AGC*CT*T (antisense dC*dCdCdC*dTdCdAdC*dTdCdC*dAdGdC*dAdGdC*dCdT*dT) [AS-II-109-20] | PC-3 prostrate cell adenocarcinoma | NOT MET |
| GCACATCTTCAGTTCATTTA (antisense dG*dC*dA*dC*dA*dT*dC*dT*dT*dC*dA*dG*dT*dT*dC*dA*dT*dT*dT*dA) [AS-II-1362-20] | PC-3 prostrate cell adenocarcinoma | NOT MET |
| AAGCGGCGGGGGTTTTCTCT (antisense dA*dA*dG*dC*dG*dG*dC*dG*dG*dG*dG*dG*dT*dT*dT*dT*dC*dT*dC*dT) [AS-II-414-20] | PC-3 prostrate cell adenocarcinoma | NOT MET |
| AGGACTGGTTGTGAGGTAGC (antisense dA*dG*dG*dA*dC*dT*dG*dG*dT*dT*dG*dT*dG*dA*dG*dG*dT*dA*dG*dC) [AS-II-1499-20] | PC-3 prostrate cell adenocarcinoma | NOT MET |
| ACCCCTCACTCCAGCAGCCT (antisense dA*dC*dC*dC*dC*dT*dC*dA*dC*dT*dC*dC*dA*dG*dC*dA*dG*dC*dC*dT) [AS-II-110-20] | PC-3 prostrate cell adenocarcinoma | MET |
| TATCGCCGCCGTGAGTACAA (antisense dT*dA*dT*dC*dG*dC*dC*dG*dC*dC*dG*dT*dG*dA*dG*dT*dA*dC*dA*dA) [AS-II-1768-20] | PC-3 prostrate cell adenocarcinoma | MET |
| GGCCCAGATCACCCCTAAAT (antisense dG*dG*dC*dC*dC*dA*dG*dA*dT*dC*dA*dC*dC*dC*dC*dT*dA*dA*dA*dT) [AS-II-2128-20] | PC-3 prostrate cell adenocarcinoma | MET |

---

Test system: HepG2 hepatocellular carcinoma
Assay: Relative colony forming efficiency (Example 17, Table 13)
Assay type: cell-based, human
Conditions: averages of 2-8 determinations
Oligonucleotides are written 5' to 3', each unit as a sugar letter and its base; * is a phosphorothioate linkage, no mark a phosphodiester; rarer units and linkages stand in square brackets, end groups in braces. Plain capitals give the bases only. d = 2'-deoxy (DNA)
Threshold check on Reduced relative colony forming efficiency, HepG2 (% inhibition of colony forming ability): at or above 80% gives fulfilled, strictly below gives not fulfilled.

| Substance | Discrete Label |
| --- | --- |
| TGGGACAGGGTGCACGGGCG (antisense dT*dG*dG*dG*dA*dC*dA*dG*dG*dG*dT*dG*dC*dA*dC*dG*dG*dG*dC*dG) [AS-II-130-20] | fulfilled |
| GGCTAAATCGCTCCACCAAG (chemistry not given here) [SEQ ID NO: 1, antisense oligonucleotide that hybridizes to the coding region of human ribonucleotide reductase R2 mRNA] | not fulfilled |
| AS-II-218220 (antisense dC*dG*dT*dT*dG*dA*dG*dG*dA*dA*dA*dA*dT*dA*dC*dA*dG*dT*dG*dA) | fulfilled |
| AS-II-114420 (antisense dG*dT*dA*dT*dT*dG*dC*dT*dT*dC*dA*dT*dT*dA*dG*dA*dG*dT*dG*dC) | fulfilled |
| CGGCGGCGTGTT (antisense dC*dG*dG*dC*dG*dG*dC*dG*dT*dG*dT*dT) [AS-II-288-12] | not fulfilled |

---

Measured Reduced relative colony forming efficiency, T24 (% inhibition of colony forming ability), listed per entry.
Test system: T24 bladder cell carcinoma
Assay: Relative colony forming efficiency (Example 17, Table 13)
Type: cell-based, human
Conditions: averages of 2-8 determinations
Oligonucleotides are written 5' to 3', each unit as a sugar letter and its base; * is a phosphorothioate linkage, no mark a phosphodiester; rarer units and linkages stand in square brackets, end groups in braces. Plain capitals give the bases only. d = 2'-deoxy (DNA)
Recorded Metric: Reduced relative colony forming efficiency, T24 (% inhibition of colony forming ability) (%)

| Substance | Measurement Units | Numeric Value |
| --- | --- | --- |
| CACACAACCTACTTACACCA (antisense dC*dA*dC*dA*dC*dA*dA*dC*dC*dT*dA*dC*dT*dT*dA*dC*dA*dC*dC*dA) [AS-II-2372-20] | % | 61.13 |
| AS-II-114420 (antisense dG*dT*dA*dT*dT*dG*dC*dT*dT*dC*dA*dT*dT*dA*dG*dA*dG*dT*dG*dC) | % | 62.9 |
| GGCATCAGTCCTCGTTTCTT (antisense dG*dG*dC*dA*dT*dC*dA*dG*dT*dC*dC*dT*dC*dG*dT*dT*dT*dC*dT*dT) [AS-II-933-20] | % | 64.84 |
| AS-II-1560.20 (antisense dG*dT*dA*dA*dG*dT*dC*dA*dC*dA*dG*dC*dC*dA*dG*dC*dC*dA*dG*dG) | % | 32.49 |
| GGCGACCCCTCACTCCAGCA (antisense dG*dG*dC*dG*dA*dC*dC*dC*dC*dT*dC*dA*dC*dT*dC*dC*dA*dG*dC*dA) [AS-II-114-20] | % | 87.45 |
| G*CG*AAG*CAG*AGC*GAG*CAGC*C (antisense dG*dCdG*dAdAdG*dCdAdG*dAdGdC*dGdAdG*dCdAdGdC*dC) [AS-II-163-20] | % | 5.49 |
| CCTGTCTTCTATCTGGCACC (antisense dC*dC*dT*dG*dT*dC*dT*dT*dC*dT*dA*dT*dC*dT*dG*dG*dC*dA*dC*dC) [AS-II-1989-20] | % | 77.43 |
| AAACGGCTTCTCACACATAT (antisense dA*dA*dA*dC*dG*dG*dC*dT*dT*dC*dT*dC*dA*dC*dA*dC*dA*dT*dA*dT) [AS-II-2151-20] | % | 79.83 |
| AGCCTCTGCCTTCTTATACA (antisense dA*dG*dC*dC*dT*dC*dT*dG*dC*dC*dT*dT*dC*dT*dT*dA*dT*dA*dC*dA) [AS-II-472-20] | % | 69.26 |
| TCAGAGGGGGCAGAGAATCC (antisense dT*dC*dA*dG*dA*dG*dG*dG*dG*dG*dC*dA*dG*dA*dG*dA*dA*dT*dC*dC) [AS-II-2044-20] | % | 53.63 |
| TGTAAACCCTCATCTCTGCT (antisense dT*dG*dT*dA*dA*dA*dC*dC*dC*dT*dC*dA*dT*dC*dT*dC*dT*dG*dC*dT) [AS-II-981-20] | % | 86.3 |
| ATAAAGTCAAATGGGTTCTC (antisense dA*dT*dA*dA*dA*dG*dT*dC*dA*dA*dA*dT*dG*dG*dG*dT*dT*dC*dT*dC) [AS-II-1224-20] | % | 38.31 |

---

Measured Reduced relative colony forming efficiency, HepG2 (% inhibition of colony forming ability), listed per entry.
Test system: HepG2 hepatocellular carcinoma
Test: Relative colony forming efficiency (Example 17, Table 13)
Format: cell-based, human
Details: averages of 2-8 determinations
Oligonucleotides are written 5' to 3', each unit as a sugar letter and its base; * is a phosphorothioate linkage, no mark a phosphodiester; rarer units and linkages stand in square brackets, end groups in braces. Plain capitals give the bases only. d = 2'-deoxy (DNA)
Recorded Metric: Reduced relative colony forming efficiency, HepG2 (% inhibition of colony forming ability)

| Substance | Tested On | Result |
| --- | --- | --- |
| AS-II-134220 (antisense dG*dA*dA*dG*dT*dC*dA*dG*dC*dA*dT*dC*dC*dA*dA*dG*dG*dT*dA*dA) | HepG2 hepatocellular carcinoma | 82.2% |
| GCTATTATCGCCGCCGTGAG (antisense dG*dC*dT*dA*dT*dT*dA*dT*dC*dG*dC*dC*dG*dC*dC*dG*dT*dG*dA*dG) [AS-II-1773-20] | HepG2 hepatocellular carcinoma | 58.19% |
| GCGGCGGGGGTTTTCTCTCA (antisense dG*dC*dG*dG*dC*dG*dG*dG*dG*dG*dT*dT*dT*dT*dC*dT*dC*dT*dC*dA) [AS-II-412-20] | HepG2 hepatocellular carcinoma | 26.23% |
